Consider the following compounds and their measured KL readings.
Test system: Atrial natriuretic peptide receptor 1 (Oryctolagus cuniculus)
ASSAY OVERVIEW: Binding affinity for low-affinity site Atrial natriuretic peptide receptor 1 of rabbit adrenal membrane
TEST CONDITIONS: Adrenal gland
Phrase the answer as number then unit, nothing more needed.

Worked examples, 3 compounds total:
SMILES STR: CC[C@H](C)[C@@H]1NC(=O)[C@@H](CCCN=C(N)N)NC(=O)CNC(=O)CNC(=O)[C@@H](C2CCCCC2)NC(=O)[C@H](NC(=O)[C@@H](CO)NC(=O)[C@H](N)CO)CSSC[C@H](C(=O)O)NC(=O)[C@@H](CCCN=C(N)N)NC(=O)[C@H](Cc2ccccc2)NC(=O)[C@@H]([C@@H](C)CC)NC(=O)[C@H](CCCN=C(N)N)NC(=O)[C@@H](CC(=O)O)NC1=O
KL: 160 nM
--
SMILES STR: CC[C@H](C)[C@@H]1NC(=O)[C@@H](CCCN=C(N)N)NC(=O)CNC(=O)CNC(=O)[C@@H](C2CCCCC2)NC(=O)CCSSC[C@H](C(N)=O)NC(=O)[C@H](CCCN=C(N)N)NC(=O)[C@H](Cc2ccccc2)NC(=O)[C@@H]([C@@H](C)CC)NC(=O)[C@H](CCCN=C(N)N)NC(=O)[C@@H](CC(=O)O)NC1=O
KL: 380 nM
--
SMILES STR: CC[C@H](C)[C@@H]1NC(=O)[C@@H](CCCN=C(N)N)NC(=O)CNC(=O)CNC(=O)[C@@H](C2CCCCC2)NC(=O)[C@H](NC(=O)[C@H](N)CCCN=C(N)N)CSSC[C@H](C(N)=O)NC(=O)[C@@H](CCCN=C(N)N)NC(=O)[C@H](Cc2ccccc2)NC(=O)[C@@H]([C@@H](C)CC)NC(=O)[C@H](CCCN=C(N)N)NC(=O)CNC1=O
KL: 260 nM

Recorded KL (compound CC[C@H](C)[C@@H]1NC(=O)[C@@H](CCCN=C(N)N)NC(=O)CNC(=O)CNC(=O)[C@@H](C2CCCCC2)NC(=O)CCSSC[C@H](C(N)=O)NC(=O)[C@@H](CCCN=C(N)N)NC(=O)[C@@H](Cc2ccccc2)NC(=O)[C@@H]([C@@H](C)CC)NC(=O)[C@H](CCCN=C(N)N)NC(=O)[C@@H](CC(=O)O)NC1=O ): 6500 nM

Documented KL of CC[C@H](C)[C@@H]1NC(=O)[C@@H](CCCN=C(N)N)NC(=O)CNC(=O)CNC(=O)[C@@H](C2CCCCC2)NC(=O)[C@H](NC(=O)[C@H](N)CCCN=C(N)N)CSSC[C@H](C(N)=O)NC(=O)[C@@H](C)NC(=O)CNC(=O)[C@@H]([C@@H](C)CC)NC(=O)[C@H](CCCN=C(N)N)NC(=O)[C@@H](CC(=O)O)NC1=O : 1200 nM

// KL value for CC[C@H](C)[C@@H]1NC(=O)[C@@H](CCCN=C(N)N)NC(=O)CNC(=O)CNC(=O)[C@@H](C2CCCCC2)NC(=O)[C@H](NC(=O)[C@H](N)CCCN=C(N)N)CSSC[C@H](C(N)=O)NC(=O)[C@@H](CCCN=C(N)N)NC(=O)[C@H](Cc2ccccc2)NC(=O)[C@@H](C)NC(=O)[C@H](CCCN=C(N)N)NC(=O)[C@@H](CC(=O)O)NC1=O : 230 nM
